experiment: Dissociation constant, pKa of the compound; type: physicochemical
quantity_kind: pKa
Form rule: numeric answer, no unit written next to it.

Entry CS(=O)(=O)OCCCNCCCOS(C)(=O)=O.Cl ; pKa = 8.77

====

tested on: Mus musculus; assay: Acute toxicity in ip dosed C3H/HeJ female X DBA2/J male F1 hybrid mouse allografted with mouse L1210 cells assessed as mortality administered as single dose; type: organism-based; details: in vivo
Classify by LD10. Ranges: group 1 (below 100 mg/kg), group 2 (100 mg/kg to below 300 mg/kg), group 3 (300 mg/kg or more)

Please review the entries below; each comes with its answer.
• CS(=O)(=O)OCCCNCCCOS(C)(=O)=O.Cl = group 2
• CCCCS(=O)(=O)OCCNCCCCCCOS(=O)(=O)CCC.Cl = group 2
• CCCS(=O)(=O)OCCCCCCNCCCOS(=O)(=O)CCC.Cl = group 2

Given CS(=O)(=O)OCCCCCCNCCCOS(C)(=O)=O.Cl , name the class its LD10 places it in.
group 1

Given CS(=O)(=O)OCCCCCCNCCOS(C)(=O)=O.Cl , name the class its LD10 places it in.
group 2

Given CCS(=O)(=O)OCCCNCCCOS(=O)(=O)CC.Cl , name the class its LD10 places it in.
group 3
